Target: rCRISPA (rCRISP1) (Rattus norvegicus)
Construct: Native rCRISPA (rCRISP1) protein, purified with DANA present; from tissue; host or cells: rat epididymis
Sequence (P12020 20-246): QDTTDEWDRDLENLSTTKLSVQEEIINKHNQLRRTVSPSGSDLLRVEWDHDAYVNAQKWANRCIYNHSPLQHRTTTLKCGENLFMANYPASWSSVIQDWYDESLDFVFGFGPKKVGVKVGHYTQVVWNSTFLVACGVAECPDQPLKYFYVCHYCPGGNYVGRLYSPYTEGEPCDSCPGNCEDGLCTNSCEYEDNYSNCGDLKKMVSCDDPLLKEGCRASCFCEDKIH
Assay: Protease activity screen: cleavage of substrate peptides by native rCRISPA (+DANA protocol), measured by fluorescence
Type: biochemical
Conditions: 5 μM substrate peptide, 1 μg enzyme, 100 mM NaCl, 25 mM Tris-Cl, pH 7.5; fluorescence at ten minute intervals for 130 minutes; FIG. 13
MEASUREMENT_TYPE: cleavage of substrate peptide by rCRISPA (rCRISP1) protease activity

Some solved cases for reference:
SEQUENCE_CHAIN: GGVRGPRV [O22, substrate peptide of the commercial peptide substrate set PrSS-360-75, JPT Peptide Technologies]
SUBJECT_OF_TEST: rCRISPA (rCRISP1) (Rattus norvegicus)
EXPERIMENTAL_RESULT: Cleaved
//
SEQUENCE_CHAIN: PQLHSTGG [J03, substrate peptide of the commercial peptide substrate set PrSS-360-75, JPT Peptide Technologies]
SUBJECT_OF_TEST: rCRISPA (rCRISP1) (Rattus norvegicus)
EXPERIMENTAL_RESULT: Uncleaved
//
SEQUENCE_CHAIN: FYRADQPR [N10, substrate peptide of the commercial peptide substrate set PrSS-360-75, JPT Peptide Technologies]
SUBJECT_OF_TEST: rCRISPA (rCRISP1) (Rattus norvegicus)
EXPERIMENTAL_RESULT: Uncleaved
//
SEQUENCE_CHAIN: APQRFGKK [B22, substrate peptide of the commercial peptide substrate set PrSS-360-75, JPT Peptide Technologies]
SUBJECT_OF_TEST: rCRISPA (rCRISP1) (Rattus norvegicus)
EXPERIMENTAL_RESULT: Cleaved
//
SEQUENCE_CHAIN: RVKRYRQS [B23, substrate peptide of the commercial peptide substrate set PrSS-360-75, JPT Peptide Technologies]
SUBJECT_OF_TEST: rCRISPA (rCRISP1) (Rattus norvegicus)
EXPERIMENTAL_RESULT: Cleaved
//
SEQUENCE_CHAIN: RRKRSTRE [G24, substrate peptide of the commercial peptide substrate set PrSS-360-75, JPT Peptide Technologies]
SUBJECT_OF_TEST: rCRISPA (rCRISP1) (Rattus norvegicus)
EXPERIMENTAL_RESULT: Cleaved
//
SEQUENCE_CHAIN: RGARARLG [A04, substrate peptide of the commercial peptide substrate set PrSS-360-75, JPT Peptide Technologies]
SUBJECT_OF_TEST: rCRISPA (rCRISP1) (Rattus norvegicus)
EXPERIMENTAL_RESULT: Cleaved
//
SEQUENCE_CHAIN: SYRKVLGQ [A05, substrate peptide of the commercial peptide substrate set PrSS-360-75, JPT Peptide Technologies]
SUBJECT_OF_TEST: rCRISPA (rCRISP1) (Rattus norvegicus)
EXPERIMENTAL_RESULT: Uncleaved

Enquiry: Can you share its cleavage of substrate peptide by rCRISPA (rCRISP1) protease activity? I mean this sequence: RKRRAPLA [N08, substrate peptide of the commercial peptide substrate set PrSS-360-75, JPT Peptide Technologies]
Return: Cleaved

Enquiry: Can you share its cleavage of substrate peptide by rCRISPA (rCRISP1) protease activity? I mean this sequence: RVKRQVRS [H07, substrate peptide of the commercial peptide substrate set PrSS-360-75, JPT Peptide Technologies]
Return: Cleaved

Enquiry: Can you share its cleavage of substrate peptide by rCRISPA (rCRISP1) protease activity? I mean this sequence: RLGREGVQ [E19, substrate peptide of the commercial peptide substrate set PrSS-360-75, JPT Peptide Technologies]
Return: Uncleaved

Enquiry: Can you share its cleavage of substrate peptide by rCRISPA (rCRISP1) protease activity? I mean this sequence: KNVAMQKG [O23, substrate peptide of the commercial peptide substrate set PrSS-360-75, JPT Peptide Technologies]
Return: Cleaved

Enquiry: Can you share its cleavage of substrate peptide by rCRISPA (rCRISP1) protease activity? I mean this sequence: RNKRAVQG [H03, substrate peptide of the commercial peptide substrate set PrSS-360-75, JPT Peptide Technologies]
Return: Cleaved

Enquiry: Can you share its cleavage of substrate peptide by rCRISPA (rCRISP1) protease activity? I mean this sequence: WQGGRRKF [A01, substrate peptide of the commercial peptide substrate set PrSS-360-75, JPT Peptide Technologies]
Return: Uncleaved

Enquiry: Can you share its cleavage of substrate peptide by rCRISPA (rCRISP1) protease activity? I mean this sequence: RARRELAP [N05, substrate peptide of the commercial peptide substrate set PrSS-360-75, JPT Peptide Technologies]
Return: Cleaved

Enquiry: Can you share its cleavage of substrate peptide by rCRISPA (rCRISP1) protease activity? I mean this sequence: AAGVAPLS [B11, substrate peptide of the commercial peptide substrate set PrSS-360-75, JPT Peptide Technologies]
Return: Uncleaved

Enquiry: Can you share its cleavage of substrate peptide by rCRISPA (rCRISP1) protease activity? I mean this sequence: GSQHIRAE [M09, substrate peptide of the commercial peptide substrate set PrSS-360-75, JPT Peptide Technologies]
Return: Uncleaved

Enquiry: Can you share its cleavage of substrate peptide by rCRISPA (rCRISP1) protease activity? I mean this sequence: RKKRSTKK [H01, substrate peptide of the commercial peptide substrate set PrSS-360-75, JPT Peptide Technologies]
Return: Cleaved

Enquiry: Can you share its cleavage of substrate peptide by rCRISPA (rCRISP1) protease activity? I mean this sequence: VHRDMAAR [M18, substrate peptide of the commercial peptide substrate set PrSS-360-75, JPT Peptide Technologies]
Return: Uncleaved

Enquiry: Can you share its cleavage of substrate peptide by rCRISPA (rCRISP1) protease activity? I mean this sequence: AATRRQAV [O16, substrate peptide of the commercial peptide substrate set PrSS-360-75, JPT Peptide Technologies]
Return: Cleaved

Enquiry: Can you share its cleavage of substrate peptide by rCRISPA (rCRISP1) protease activity? I mean this sequence: RMRRYADA [A09, substrate peptide of the commercial peptide substrate set PrSS-360-75, JPT Peptide Technologies]
Return: Cleaved

Enquiry: Can you share its cleavage of substrate peptide by rCRISPA (rCRISP1) protease activity? I mean this sequence: SAARPAPP [A10, substrate peptide of the commercial peptide substrate set PrSS-360-75, JPT Peptide Technologies]
Return: Uncleaved

Enquiry: Can you share its cleavage of substrate peptide by rCRISPA (rCRISP1) protease activity? I mean this sequence: RSRREADL [M16, substrate peptide of the commercial peptide substrate set PrSS-360-75, JPT Peptide Technologies]
Return: Uncleaved
